Numbers sourced from PubChem BioAssay (NCI).

test system: CAKI-1 renal; experiment: NCI tumour cell line growth inhibition, 48 h
parameter-measured: TGI (µM)
One number for each entry, in µM.

INSERT INTO results (compound, parameter_measured, measurement_unit, reading) VALUES
  ('CCCCCCCCCCCCCCCCCC1=NC(C)(C)CN1CC(C)O (stereo not drawn)', 'TGI', 'µM', 29.4);

Now look at this one.
Prompt line: Quick one: TGI of `NS(=O)(=O)c1ccc(-n2nc3c(c2-c2ccc(Cl)cc2)Cc2ccccc2-3)cc1` ?
Response line: 31.6

###

For each of the compounds below, state its TGI.
test system: RXF 393 renal; assay: NCI tumour cell line growth inhibition, 48 h

Observe how each entry below is paired with its result.
INSERT INTO measurements (compound, reading) VALUES
  ('CCOC(=O)c1[nH]c(-c2[nH]c(-c3[nH]c(-c4[nH]c(C(=O)OCC)c(C)c4C(=O)OCC)c(C(=O)OCC)c3C)c(C)c2C(=O)OCC)c(C(=O)OCC)c1C', '> 100 µM'),
  ('Cc1ccc2c(c1)C(=O)c1nc(C)ccc1C2=O', '> 100 µM'),
  ('CN(C)c1ccc(C=NCC2CCCN3CCCCC23)cc1 (stereo not given)', '> 100 µM'),
  ('NC(=O)N/N=C(/CC1C(=O)Oc2ccccc21)c1ccccc1O (stereo not given)', '> 100 µM');

Parameter requested: TGI. Apply to each item below.
1. NC(=S)/N=C(/c1nc2ccc(Cl)cc2[nH]c1=O)C(O)c1ccccc1Cl (stereo not given)
2. Cc1nn[n-]n1.N.N.N.N.N.[Cl-].[Co+3]
3. O=C1CC(c2ccccc2)C2(C(=O)NC(=S)NC2=O)C(c2ccccc2)C1 (stereo not given)
4. O=C(O)C(O)C(O)C(=O)O (stereo not given)
5. COc1ccc(-c2ccncc2)cc1C(N)=O
6. Cc1ccccc1NC(=O)c1cc(-c2ccc([N+](=O)[O-])cc2)nc(=S)[nH]1

Response line:
> 100 µM
> 100 µM
> 75 µM
> 100 µM
> 25 µM
> 100 µM

###

system: MALME-3M melanoma; experiment: NCI tumour cell line growth inhibition, 48 h
Provide the recorded TGI for the entries that follow.

Some compounds with known TGI results, for comparison:
INSERT INTO measurements (compound, assay_system, reading) VALUES
  ('CC1=C(C(=O)CC(=O)C(=O)Nc2cc(C)ccc2C)Sc2ccccc2N1', 'MALME-3M melanoma', '> 100 µM'),
  ('CCNC(=O)COc1ccc(Br)cc1Br', 'MALME-3M melanoma', '> 100 µM');

Could you report TGI for every entry in the following list?
1. COc1ccc(NC(=O)CC2SC(=Nc3ccccc3C)NC2=O)c([N+](=O)[O-])c1 (configuration not stated)
2. Cc1ccc(SC2C(=O)C3CC(OCc4ccccc4)C2(C)C3(C)C)cc1 (configuration not stated)
3. Cc1nn[n-]n1.N.N.N.N.N.[Cl-].[Co+3]
4. CN(Cc1cnc2nc(N)nc(N)c2n1)c1ccc(C(=O)N[C@@H](CCC(=O)O)C(=O)O)cc1
5. COC/C=C\COC
6. O=C1c2ccccc2C(=O)c2cc(N=Nc3c(O)ccc4ccccc34)ccc21
7. CC1=NC2=Nc3nc(C)cc[n+]3CN2C=C1
8. O=C(O)CCC(=O)c1ccc2c(c1)C(C(=O)O)CC2 (configuration not stated)

Response line:
["> 100 µM", "> 100 µM", "> 100 µM", "> 250 µM", "> 100 µM", "> 100 µM", "> 100 µM", "> 100 µM"]

For each of the compounds below, note its TGI.
1. CCCCCCCCCCCCCCCCNC(=O)C(=O)/C=C(\O)c1ccc(C)cc1
2. CCOC(=O)c1[nH]c(-c2[nH]c(-c3[nH]c(-c4[nH]c(C(=O)OCC)c(C)c4C(=O)OCC)c(C(=O)OCC)c3C)c(C)c2C(=O)OCC)c(C(=O)OCC)c1C

Response line:
1: > 10 µM; 2: > 100 µM
